test system: Fusobacterium nucleatum; assay: Inhibition of Fusobacterium nucleatum ATCC 25586 recombinant MGL R58A mutant expressed in Escherichia coli BL21 (DE3) assessed as decrease in signal intensity by measuring recovery ratio by 19F NMR based competition assay relative to wild type
Activity calls are given as the source filed them. The calls are words filed in the database; no cut-off is given here.
MEASURED QUANTITY: Activity

CC(C)(C)OC(=O)N1CCC(C(=O)O)(c2ccc(C(F)(F)F)cc2)CC1
Active
CC(C)(C)OC(=O)N[C@H]1CC[C@H](N2Cc3ccc(F)cc3C2=O)CC1
Active
CC(C)(C)OC(=O)N1CCC(CN)(Cc2ccc(F)cc2)CC1
Active
CC(C)(CC(=O)O)c1ccc(F)cc1
80%
O=C(O)c1ccnc(OC(F)(F)F)c1
80%
CC(C)(Cc1ccc(C(F)(F)F)cc1)C(=O)O
80%
O=C(O)c1cncc(OCC(F)(F)F)c1
80%
O=C(O)c1cc(C(F)(F)F)nn1Cc1ccccc1
80%
O=C(O)c1cc(OC(F)(F)F)ccn1
80%

---

system: Fusobacterium nucleatum; experiment: Inhibition of Fusobacterium nucleatum ATCC 25586 recombinant MGL C113S mutant expressed in Escherichia coli BL21 (DE3) assessed as decrease in signal intensity by measuring recovery ratio by 19F NMR based competition assay relative to wild type
Calls of active or inactive are those of the source. The calls are words filed in the database; no cut-off is given here.
MEASURED QUANTITY: Activity

CC(C)(C)OC(=O)N[C@H]1CC[C@H](N2Cc3cccc(F)c3C2=O)CC1
Active
CCOC(=O)c1nc(-c2ccccc2F)no1
Active
CC(C)(C)OC(=O)N1CCC(CN)(c2ccccc2C(F)(F)F)CC1
50%
CC(C)(C)OC(=O)N1CCC(CN)(c2ccc(F)cc2)CC1
Active
O=C(O)c1cn(-c2ccc(C(F)(F)F)cc2)cn1
Active
CC(C)(C)OC(=O)N1CCC(CN)(Cc2ccc(C(F)(F)F)cc2)CC1
50%
CC(C)(C)OC(=O)N1CCC(CN)(Cc2ccccc2F)CC1
80%
O=C(O)c1cnc(OCC(F)(F)F)cn1
Active
CC(C)(C)OC(=O)N1CCC(CN)(Cc2ccccc2C(F)(F)F)CC1
80%
O=C(O)c1cc(C(F)(F)F)nn1-c1ccccc1
50%
O=C(O)c1cc(F)c(OCC2CC2)c(F)c1
Active

---

test system: Fusobacterium nucleatum; experiment: Inhibition of Fusobacterium nucleatum ATCC 25586 recombinant MGL R373K mutant expressed in Escherichia coli BL21 (DE3) assessed as decrease in signal intensity by measuring recovery ratio by 19F NMR based competition assay relative to wild type; design: concentration or dose not given beside the values
Active and inactive are the calls of the source. No cut-off for these calls is given here.
MEASURED QUANTITY: Activity

CC(C)(C)OC(=O)N1CCC(CN)(Cc2ccccc2C(F)(F)F)CC1
Active
CCOC(=O)c1nc(-c2ccc(F)cc2)no1
50%
CCOC(=O)c1nc(-c2ccccc2F)no1
Active
O=C(O)c1cn(-c2ccc(C(F)(F)F)cc2)cn1
Active

---

system: Fusobacterium nucleatum; assay: Inhibition of Fusobacterium nucleatum ATCC 25586 recombinant MGL Y56F mutant expressed in Escherichia coli BL21 (DE3) assessed as decrease in signal intensity by measuring recovery ratio by 19F NMR based competition assay relative to wild type; design: concentration or dose not given beside the values
The source made the active and inactive calls. The calls are words filed in the database; no cut-off is given here.
MEASURED QUANTITY: Activity

Nc1cc(F)c(OCC2CCC2)c(F)c1
80%
CC(C)(CC(=O)O)c1ccc(F)cc1
80%
O=C(O)c1ccnc(OC(F)F)c1
80%
O=C(O)c1cn(-c2ccccc2F)cn1
Active
O=C(O)c1cc(C(F)(F)F)nn1Cc1ccccc1
50%
O=C(O)c1cn(-c2ccc(F)cc2)cn1
Active
CC(C)(Cc1ccc(C(F)(F)F)cc1)C(=O)O
80%
O=C(O)c1cn(-c2ccc(C(F)(F)F)cc2)cn1
80%
CC(C)(C)OC(=O)N1CCC(CN)(c2ccccc2C(F)(F)F)CC1
80%
O=C(O)c1cc(F)c(OCC2CC2)c(F)c1
80%
O=C(O)c1ccc(OC(F)F)nc1
80%
CC(C)(C)OC(=O)N1CCC(CN)(Cc2ccccc2C(F)(F)F)CC1
80%
O=C(O)c1ccc(OCC(F)(F)F)cn1
80%
O=C(O)c1cc(OC(F)(F)F)ccn1
80%
CC(C)(C)OC(=O)N1CCC(CN)(Cc2ccccc2F)CC1
80%
O=C(O)c1cn(-c2cccc(F)c2)cn1
80%
CCOC(=O)c1nc(-c2ccccc2F)no1
80%
CC(C)(C)OC(=O)N1CCC(CN)(c2ccccc2F)CC1
80%
CC(C)(C)OC(=O)N1CCC(CN)(Cc2ccc(F)cc2)CC1
80%
CC(C)(CC(=O)O)c1ccc(C(F)(F)F)cc1
80%
CCOC(=O)c1nc(-c2ccc(F)cc2)no1
80%
CC(C)(C)OC(=O)N1CCC(CN)(c2cccc(F)c2)CC1
50%
CC(C)(C)OC(=O)N1CCC(CN)(Cc2ccc(C(F)(F)F)cc2)CC1
80%
O=C(O)c1cncc(OCC(F)(F)F)c1
80%
CC(C)(C)OC(=O)N1CCC(CN)(c2ccc(F)cc2)CC1
80%
CC(C)(C)OC(=O)N1CCC(C(=O)O)(c2ccc(C(F)(F)F)cc2)CC1
80%
Cc1ccc2[nH]cc(C(C(=O)O)C(F)(F)F)c2c1 (stereo unspecified)
80%
Cc1cccc2c(C(C(=O)O)C(F)(F)F)c[nH]c12 (stereo unspecified)
80%
O=C(O)c1cc(C(F)(F)F)nn1-c1ccccc1
80%
O=C(O)c1ccnc(OC(F)(F)F)c1
80%
CC(C)(C)OC(=O)N[C@H]1CC[C@H](N2Cc3ccc(F)cc3C2=O)CC1
50%
CC(C)(C)OC(=O)N[C@H]1CC[C@H](N2Cc3cccc(F)c3C2=O)CC1
50%
COCCOc1ccc(C(=O)O)cc1C(F)(F)F
80%
CC(C)(Cc1cccc(C(F)(F)F)c1)C(=O)O
80%
O=C(O)c1cnn(-c2ccc(F)cc2)c1
80%
O=C(O)c1cnc(OCC(F)(F)F)cn1
80%
